Target: mPGES-1 (Homo sapiens, UniProt O14684)
Experiment: A549 cell-based assay (PGE2 formation, IL-1β stimulated, 50% human serum)
Parameters: host or cells: A549 cells
Conditions: A549 cells, IL-1β 5 ng/ml, 20-24 h, Table B, read-out: mPGES-1 inhibitory effect, IC50, cell assay
measurement name: IC50 (nM)
Write down the numeric answer in nM and omit the unit.

A selection of reference data follows.
Cn1c(Nc2c(Cl)ccc(CNC(=O)C(C)(C)C)c2Cl)nc2cc(C(=O)Nc3ccc(OC(F)(F)F)cc3)c(N3CCC(C(F)(F)F)CC3)nc21: 5
Cn1c(Nc2c(Cl)ccc(CNC(=O)C(C)(C)C)c2Cl)nc2cc(C(=O)N[C@H]3CC[C@H](C(F)(F)F)CC3)c(N(CC3CC3)C3CC3)nc21: 5

Now, please, on to the next molecule.
Request: What does the record list as IC50 for CN(Cc1nncn1C)c1nc2c(cc1C(=O)N[C@H]1CC[C@H](C(F)(F)F)CC1)nc(Nc1c(Cl)ccc(CNC(=O)C(C)(C)C)c1Cl)n2C ?
Result: 90

###

# pIC50 listing for each entry below
Target: mPGES-1 (Homo sapiens, UniProt O14684)
Sequence (O14684 1-152): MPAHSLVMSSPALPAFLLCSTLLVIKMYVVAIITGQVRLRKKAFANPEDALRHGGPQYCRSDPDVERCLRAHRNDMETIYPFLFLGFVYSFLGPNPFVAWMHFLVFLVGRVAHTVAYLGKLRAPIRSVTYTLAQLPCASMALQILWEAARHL
Experiment: A549 cell-based assay (PGE2 formation, IL-1β stimulated, 50% human serum)
Set-up: host or cells: A549 cells
Settings: Table C comparison of enzym and cell IC50, A549 cells, read-out: Cell IC50
Scale: negative log10 of molar concentration, which is what pIC50 denotes.

A selection of reference data follows.
Cn1c(Nc2cc(CNC(=O)C(C)(C)C)ccc2Cl)nc2cc(C(=O)N[C@H]3CC[C@H](C(F)(F)F)CC3)c(OCC(F)(F)F)cc21 [reference compound]: 7.05
Cn1c(Nc2c(F)cccc2Cl)nc2cc(C(=O)Nc3ccc(Br)cc3)c(OCC(F)F)nc21 [reference compound]: 7.14
Cn1c(Nc2c(Cl)cc(F)cc2Cl)nc2cc(C(=O)N[C@H]3CC[C@H](C(F)(F)F)CC3)c(OCC(F)F)nc21 [reference compound]: 6.79

Request: What does the record list as pIC50 for O=C(N[C@H]1CC[C@H](C(F)(F)F)CC1)c1cc2nc(Nc3c(Cl)cc(F)cc3Cl)[nH]c2nc1OCC(F)(F)F [reference compound] ?
Result: 7.37

Request: What does the record list as pIC50 for Cn1c(Nc2cc(CNC(=O)C3(C(F)(F)F)CC3)ccc2Cl)nc2cc(C(=O)Nc3ccc(F)c(Cl)c3)c(OCC(F)F)cc21 [reference compound] ?
Result: 8.10

###

Molecular target: mPGES-1 (Homo sapiens, UniProt O14684)
Assay: mPGES-1 enzyme assay (HTRF detection of PGE2)
Assay type: biochemical
Parameters: made in house; host or cells: Rosetta E. coli (membrane/microsome fraction)
Details: recombinant human mPGES-1 microsomes, PGH2 2 μM, Table A; read-out: mPGES-1 inhibitory effect, IC50, enzyme assay
pIC50: −log10 of the molar value.
Use 8 as the dividing line for pIC50, with the line itself on the satisfied side and lower values as not satisfied.

See these solved cases before continuing.
Cn1c(Nc2c(Cl)ccc(CNC(=O)C(C)(C)C)c2Cl)nc2cc(C(=O)NCCCC(F)(F)F)c(N3CCC(C(F)(F)F)CC3)nc21: satisfied
CC(C)(C)C(=O)NCc1ccc(Cl)c(Nc2nc3cc(C(=O)N[C@H]4CC[C@H](C(F)(F)F)CC4)c(N4CCC(F)(F)C4)nc3[nH]2)c1Cl: satisfied
CN(Cc1nccn1C)c1nc2c(cc1C(=O)N[C@H]1CC[C@H](C(F)(F)F)CC1)nc(Nc1c(Cl)ccc(CNC(=O)C(C)(C)C)c1Cl)n2C: satisfied

Request: Is the recorded value of pIC50 equal to or greater than 8 for this compound? CC(C)(C)OC(=O)NCc1cc(F)c(Cl)c(Nc2nc3cc(C(=O)N[C@H]4CC[C@H](C(F)(F)F)CC4)c(N4CCC(F)CC4)nc3[nH]2)c1Cl
Result: not satisfied

###

Molecular target: UniProt O14684
Sequence (O14684 1-152): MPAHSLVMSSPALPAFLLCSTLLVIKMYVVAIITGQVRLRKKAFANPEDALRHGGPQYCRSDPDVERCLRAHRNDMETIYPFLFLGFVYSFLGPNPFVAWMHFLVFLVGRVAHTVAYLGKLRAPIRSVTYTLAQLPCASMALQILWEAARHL
Assay: mPGES-1 enzyme assay (HTRF detection of PGE2)
Assay type: biochemical
Parameters: made in house; host or cells: Rosetta E. coli (membrane/microsome fraction)
Details: recombinant human mPGES-1 microsomes, PGH2 2 μM, Table A; read-out: mPGES-1 inhibitory effect, IC50, enzyme assay
measurement name: pIC50
Scale: negative log10 of molar concentration, which is what pIC50 denotes.

A selection of reference data follows.
CC(C)(C)C(=O)NCc1ccc(Cl)c(Nc2nc3cc(C(=O)N[C@H]4CC[C@H](C(F)(F)F)CC4)c(N4CCOCC4)nc3n2CC(F)F)c1Cl [Example 25]: 8.40
CC(C)(C)C(=O)NCc1ccc(Cl)c(Nc2nc3cc(C(=O)N[C@H]4CC[C@H](C(F)(F)F)CC4)c(N4CCC(F)CC4)nc3[nH]2)c1Cl [Example 3]: 8.52

Request: Give the reported pIC50 for CC(C)(C)C(=O)NCc1ccc(Cl)c(Nc2nc3cc(C(=O)N[C@H]4CC[C@H](C(F)(F)F)CC4)c(N4CCC(C(F)(F)F)CC4)nc3n2CC(F)F)c1Cl [Example 27] (system: UniProt O14684).
Result: 8.52

Request: Give the reported pIC50 for Cn1c(Nc2cc(CNC(=O)C3(C(F)(F)F)CC3)ccc2Cl)nc2cc(C(=O)N[C@H]3CC[C@H](C(F)(F)F)CC3)c(N3CCC(C(F)(F)F)CC3)nc21 [Example 1] (system: UniProt O14684).
Result: 8.30

Request: Give the reported pIC50 for CC(C)(C)C(=O)NCc1cc(F)c(Cl)c(Nc2nc3cc(C(=O)N[C@H]4CC[C@H](C(F)(F)F)CC4)c(N4CCC(F)CC4)nc3[nH]2)c1Cl [Example 15] (system: UniProt O14684).
Result: 8.70

Request: Give the reported pIC50 for Cn1c(Nc2c(Cl)ccc(CNC(=O)C(C)(C)C(F)(F)F)c2Cl)nc2cc(C(=O)N[C@H]3CC[C@H](C(F)(F)F)CC3)c(N3CC[C@@H](F)C3)nc21 [Example 19] (system: UniProt O14684).
Result: 8.40

###

# IC50 listing for each entry below
Target: mPGES-1 (Homo sapiens, UniProt O14684)
Test: A549 cell-based assay (PGE2 formation, IL-1β stimulated, 50% human serum)
Set-up: host or cells: A549 cells
Conditions: A549 cells, IL-1β 5 ng/ml, 20-24 h, Table B, read-out: mPGES-1 inhibitory effect, IC50, cell assay
Write down the numeric answer in nM and omit the unit.

CC(C)(C)C(=O)NCc1ccc(Cl)c(Nc2nc3cc(C(=O)N[C@H]4CC[C@H](C(F)(F)F)CC4)c(N4CCC(F)CC4)nc3[nH]2)c1Cl [Example 3]: 2
CC(C)(C)C(=O)NCc1ccc(Cl)c(Nc2nc3cc(C(=O)N[C@H]4CC[C@H](C(F)(F)F)CC4)c(N4CCC(C(F)(F)F)CC4)nc3n2CC(F)F)c1Cl [Example 27]: 2
CC(NC(=O)c1cc2nc(Nc3c(Cl)ccc(CNC(=O)C(C)(C)C)c3Cl)n(C)c2nc1N1CCC(C(F)(F)F)CC1)C(F)(F)F (stereo not drawn) [Example 31]: 20

Request: What does the record list as IC50 for CC(C)(C)C(=O)NCc1ccc(Cl)c(Nc2nc3cc(C(=O)N[C@H]4CC[C@H](C(F)(F)F)CC4)c(N4CC[C@@H](F)C4)nc3[nH]2)c1Cl [Example 7] ?
Result: 11

Request: What does the record list as IC50 for CN(CC1(C)COC1)c1nc2c(cc1C(=O)N[C@H]1CC[C@H](C(F)(F)F)CC1)nc(Nc1c(Cl)ccc(CNC(=O)C(C)(C)C)c1Cl)n2C [Example 22] ?
Result: 15

Request: What does the record list as IC50 for Cn1c(Nc2c(Cl)ccc(CNC(=O)C(C)(C)C)c2Cl)nc2cc(C(=O)Nc3cccc(OC(F)(F)F)c3)c(N3CCC(C(F)(F)F)CC3)nc21 [Example 40] ?
Result: 13

###

Biological target: mPGES-1 (Homo sapiens, UniProt O14684)
Sequence (O14684 1-152): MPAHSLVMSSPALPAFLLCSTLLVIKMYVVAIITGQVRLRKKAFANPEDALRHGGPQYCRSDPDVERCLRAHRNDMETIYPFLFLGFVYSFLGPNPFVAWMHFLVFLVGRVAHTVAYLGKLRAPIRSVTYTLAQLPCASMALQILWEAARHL
Assay: A549 cell-based assay (PGE2 formation, IL-1β stimulated, 50% human serum)
Set-up: host or cells: A549 cells
Settings: A549 cells, IL-1β 5 ng/ml, 20-24 h, Table B, read-out: mPGES-1 inhibitory effect, IC50, cell assay
# log10 of IC50 listing for each entry below
Reminder: these figures are log10 of reported IC50, in nM before transformation.

A selection of reference data follows.
Cn1c(Nc2c(Cl)ccc(CNC(=O)C(C)(C)C)c2Cl)nc2cc(C(=O)NC3(c4ccc(F)cc4)CC3)c(N3CCC(C(F)(F)F)CC3)nc21: 0.90
Cn1c(Nc2c(Cl)ccc(CNC(=O)C(C)(C)C)c2Cl)nc2cc(C(=O)Nc3cccc(C(F)(F)F)n3)c(N3CCC(C(F)(F)F)CC3)nc21: 1.75
CC(C)(C)C(=O)NCc1ccc(Cl)c(Nc2nc3cc(C(=O)N[C@H]4CC[C@H](C(F)(F)F)CC4)c(N4CCC(C(F)(F)F)CC4)nc3n2CC(N)=O)c1Cl: 0.48
CC(NC(=O)c1cc2nc(Nc3c(Cl)ccc(CNC(=O)C(C)(C)C)c3Cl)n(C)c2nc1N1CCC(C(F)(F)F)CC1)c1cccs1 (stereo not drawn): 1.08
CC(C)(C)C(=O)NCc1ccc(Cl)c(Nc2nc3cc(C(=O)N[C@H]4CC[C@H](C(F)(F)F)CC4)c(N4CCC(F)(F)C4)nc3[nH]2)c1Cl: 0.78
Cn1c(Nc2c(Cl)ccc(CNC(=O)C(C)(C)C)c2Cl)nc2cc(C(=O)NCc3ccc(F)cc3C(F)(F)F)c(N3CCC(C(F)(F)F)CC3)nc21: 1.20

Now, please, on to the next molecule.
Request: What does the record list as log10 of IC50 for CC(C)(C)C(=O)NCc1ccc(Cl)c(Nc2nc3cc(C(=O)N[C@H]4CC[C@H](C(F)(F)F)CC4)c(N4CCOCC4)nc3n2CC(F)F)c1Cl ?
Result: 0.85
